System: Staphylococcus aureus MW2 delta-mecA (mecA-)
Assay Protocol: IC50 (growth, competition assay)
Experimental Conditions: fluorescent label: DsRed; cefoxitin: subinhibitory
pIC50: −log10 of the molar value.
Provide the recorded pIC50 for the entries that follow.

Worked examples follow.
INSERT INTO assay_data (compound, value_reported) VALUES
  ('CCOC(=O)[C@@H](N)Cc1ccc(-c2cc(O[C@H](c3ccc(Cl)cc3-n3ccc(C)n3)C(F)(F)F)nc(N)n2)cc1 [LX1606 hippurate]', '> 5.01'),
  ('CC(C)(C)CC(C)(C)c1ccc(OCCOCC[N+](C)(C)Cc2ccccc2)cc1 [PHEMERIDE]', '> 5.01'),
  ('COc1cc([C@@H]2c3cc4c(cc3[C@@H](O[C@@H]3O[C@@H]5CO[C@@H](C)O[C@H]5[C@H](O)[C@H]3O)[C@H]3COC(=O)[C@H]23)OCO4)cc(OC)c1O [Etoposide]', '> 5.01');

For each entry beneath this line, provide reported pIC50.
1. C[C@@H](O)[C@H]1C(=O)N2C(C(=O)OCOC(=O)C(C)(C)C)=C(SC3CN(C4=NCCS4)C3)[C@H](C)[C@H]12
2. CC1CCc2c(N3CCC(O)CC3)c(F)cc3c(=O)c(C(=O)O)cn1c23 (stereo not drawn)
3. C=C(NC(=O)C(=C)NC(=O)c1csc(C2=N[C@@H]3c4csc(n4)[C@H]4NC(=O)c5csc(n5)[C@H]([C@](C)(O)[C@@H](C)O)NC(=O)[C@H]5CSC(=N5)/C(=C/C)NC(=O)[C@H]([C@@H](C)O)NC(=O)c5csc(n5)[C@]3(CC2)NC(=O)[C@H](C)NC(=O)C(=C)NC(=O)[C@H](C)NC(=O)[C@H]([C@@H](C)CC)N[C@@H]2C=Cc3c([C@H](C)O)cc(nc3[C@H]2O)C(=O)O[C@@H]4C)n1)C(N)=O
4. CCOC(=O)CCC(=O)O[C@H]1[C@H](O[C@@H]2[C@@H](C)[C@H](O[C@H]3C[C@@](C)(OC)[C@@H](O)[C@H](C)O3)[C@@H](C)C(=O)O[C@H](CC)[C@@](C)(O)[C@H](O)[C@@H](C)C(=O)[C@H](C)C[C@@]2(C)O)O[C@H](C)C[C@@H]1N(C)C [ERYPED]
5. C=C1c2cccc(O)c2C(=O)C2=C(O)[C@]3(O)C(=O)C(C(N)=O)=C(O)[C@@H](N(C)C)[C@@H]3[C@@H](O)[C@H]12 [RONDOMYCIN]
6. Cc1ccc(S(=O)(=O)C=CC#N)cc1 [Bay 11-7082]

1. > 6.30
2. > 5.01
3. > 5.01
4. > 5.01
5. > 5.01
6. > 5.01

* * *

Test system: Staphylococcus aureus MW2 (mecA+)
Assay Protocol: IC50 (growth, competition assay)
Experimental Conditions: fluorescent label: DsRed; cefoxitin: subinhibitory
pIC50: −log10 of the molar value.
Provide the recorded pIC50 for the entries that follow.

Worked examples follow.
INSERT INTO results (compound, target_or_test_system, value_reported) VALUES
  ('CCC[C@@H]1C[C@@H](C(=O)N[C@@H]([C@H]2O[C@H](SC)[C@H](O)[C@@H](O)[C@H]2O)[C@@H](C)O)N(C)C1 [LINCOCIN]', 'Staphylococcus aureus MW2 (mecA+)', '> 5.01'),
  ('Cc1cc(F)c(Nc2ncnc3cc(OCc4ccccc4)ccc23)cc1O', 'Staphylococcus aureus MW2 (mecA+)', '< 3.82');

Need pIC50 of Cc1cc(O)c(C(=O)N[C@@H](C(=O)N[C@@H]2C(=O)N3C(C(=O)O)=C(CSc4nnnn4C)CS[C@H]23)c2ccc(O)cc2)cn1 [CEFPIRAN] , thanks.
> 5.01
